# Target Of Assay: UniProtKB P32245
# Method Notes: High and low density hMC4-R functional assay (cAMP, HEK293-T-REx-MC4-R cells)
# Assay type: cell-based
# Condition Notes: 10 ng/mL Doxycycline (high density hMC4-R system); NDP-α-MSH = 100%; read-out: Intrinsic Activity (%)
Assay Metric: Emax (%)
Answer format: numeric, % implied, no suffix.

Previously resolved entries follow.
- Mol: "CC(=O)N[C@@H](CCCNC(=N)N)C(=O)N[C@H]1CCC(=O)NCCC[C@@H](C(=O)O)NC(=O)[C@H](Cc2c[nH]c3ccccc23)NC(=O)[C@H](CCCNC(=N)N)NC(=O)[C@@H](Cc2ccccc2Cl)NC(=O)[C@H](CCCN)NC1=O"
  Target Of Assay: "UniProtKB P32245"
  Result: 93
- Mol: "CC(=O)N[C@@H](CCCNC(=N)N)C(=O)N[C@H]1CCC(=O)NCCC[C@@H](C(N)=O)NC(=O)[C@H](Cc2c[nH]c3ccccc23)NC(=O)[C@H](CCCNC(=N)N)NC(=O)[C@@H](Cc2ccc(O)cc2)NC(=O)[C@H](CCN)NC1=O"
  Target Of Assay: "UniProtKB P32245"
  Result: 87
- Mol: "CC(=O)N[C@H](CCCNC(=N)N)C(=O)N[C@H]1CC(=O)NCCCC[C@@H](C(N)=O)NC(=O)[C@H](Cc2c[nH]c3ccccc23)NC(=O)[C@H](CCCNC(=N)N)NC(=O)[C@@H](Cc2ccc(F)cc2)NC(=O)[C@H](CCC(N)=O)NC1=O"
  Target Of Assay: "UniProtKB P32245"
  Result: 94

From here, focus on the item given below.
Query block: Determine its reported Emax: `CC(=O)N[C@@H](CCCNC(=N)N)C(=O)N[C@H]1CCC(=O)NCCC[C@@H](C(N)=O)NC(=O)[C@H](Cc2c[nH]c3ccccc23)NC(=O)[C@H](CCCNC(=N)N)NC(=O)[C@@H](Cc2ccc(C)cc2)NC(=O)[C@H](CCN)NC1=O`
Result block: 90

====

# Target Of Assay: hMC4-R (Homo sapiens (Human))
# Sequence (P32245 whole entry): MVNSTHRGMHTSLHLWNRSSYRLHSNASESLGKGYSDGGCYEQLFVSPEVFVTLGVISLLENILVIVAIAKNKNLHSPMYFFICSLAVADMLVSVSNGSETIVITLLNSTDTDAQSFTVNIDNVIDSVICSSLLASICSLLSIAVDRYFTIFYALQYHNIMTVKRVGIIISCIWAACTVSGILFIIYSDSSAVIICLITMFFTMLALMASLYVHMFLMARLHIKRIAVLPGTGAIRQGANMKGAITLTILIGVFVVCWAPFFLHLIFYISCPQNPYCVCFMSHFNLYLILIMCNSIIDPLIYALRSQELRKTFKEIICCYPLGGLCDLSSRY
# Method Notes: High and low density hMC4-R functional assay (cAMP, HEK293-T-REx-MC4-R cells)
# Type: cell-based
# Condition Notes: 0.1 ng/mL Doxycycline (low density hMC4-R system)
// NB: equality with 0.6 nM counts as FALSE; only EC50 strictly below is TRUE

For orientation, consider the following solved cases.
- Compound: "CC(=O)N[C@@H](CCCNC(=N)N)C(=O)N[C@H]1CCC(=O)NCCC[C@@H](C(N)=O)NC(=O)[C@H](Cc2c[nH]c3ccccc23)NC(=O)[C@H](CCCNC(=N)N)NC(=O)[C@@H](Cc2ccc(C)cc2)NC(=O)[C@H](CCN)NC1=O"
  Target Of Assay: "hMC4-R (Homo sapiens (Human))"
  Label Value: "TRUE"
- Compound: "CC(=O)N[C@H](CCCNC(=N)N)C(=O)N[C@H]1CC(=O)NCCCC[C@@H](C(N)=O)NC(=O)[C@H](Cc2c[nH]c3ccccc23)NC(=O)[C@H](CCCNC(=N)N)NC(=O)[C@@H](Cc2ccc(C#N)cc2)NC(=O)[C@H](CCC(N)=O)NC1=O"
  Target Of Assay: "hMC4-R (Homo sapiens (Human))"
  Label Value: "FALSE"
- Compound: "CC(=O)N[C@@H](CCCNC(=N)N)C(=O)N[C@H]1CCC(=O)NCCC[C@@H](C(N)=O)NC(=O)[C@H](Cc2c[nH]c3ccccc23)NC(=O)[C@H](CCCNC(=N)N)NC(=O)[C@@H](Cc2cccc(Cl)c2)NC(=O)[C@H](CCN)NC1=O"
  Target Of Assay: "hMC4-R (Homo sapiens (Human))"
  Label Value: "TRUE"

Query block: Here's an entry: `CC(=O)N[C@@H](CCCNC(=N)N)C(=O)N[C@H]1CCC(=O)NCCC[C@@H](C(N)=O)NC(=O)[C@H](Cc2c[nH]c3ccccc23)NC(=O)[C@H](CCCNC(=N)N)NC(=O)[C@@H](Cc2ccccc2Cl)NC(=O)[C@@H]2C[C@@H](O)CN2C1=O` . Is its EC50 below 0.6 nM?
Result block: FALSE

Query block: Hi there! Is EC50 for `CC(=O)N[C@@H](CCCNC(=N)N)C(=O)N[C@H]1CCC(=O)NCCC[C@@H](C(N)=O)NC(=O)[C@H](Cc2c[nH]c3ccccc23)NC(=O)[C@H](CCCNC(=N)N)NC(=O)[C@@H](Cc2ccc(F)c(F)c2)NC(=O)[C@H](CCN)NC1=O` below 0.6 nM, do you know?
Result block: TRUE

Query block: Given the entry `COc1ccc(C[C@H]2NC(=O)[C@H](CCN)NC(=O)[C@@H](NC(=O)[C@H](CCCNC(=N)N)NC(C)=O)CCC(=O)NCCC[C@@H](C(N)=O)NC(=O)[C@H](Cc3c[nH]c4ccccc34)NC(=O)[C@H](CCCNC(=N)N)NC2=O)cc1` , would its reported EC50 be below 0.6 nM?
Result block: TRUE

Query block: EC50 strictly < 0.6 nM for this compound? `CC(=O)N[C@@H](CCCNC(=N)N)C(=O)N[C@H]1CCC(=O)NCCC[C@@H](C(N)=O)NC(=O)[C@H](Cc2c[nH]c3ccccc23)NC(=O)[C@H](CCCNC(=N)N)NC(=O)[C@@H](Cc2ccc(F)cc2)NC(=O)[C@H](CCN)NC1=O`
Result block: TRUE

Query block: Is EC50 strictly under 0.6 nM for the entry CC(=O)N[C@@H](CCCNC(=N)N)C(=O)N[C@H]1CCC(=O)NCCC[C@@H](C(N)=O)NC(=O)[C@H](Cc2c[nH]c3ccccc23)NC(=O)[C@H](CCCNC(=N)N)NC(=O)[C@@H](Cc2ccc(F)cc2)NC(=O)[C@@H]2CCCN2C1=O [Example 67] ?
Result block: FALSE
